These entries and their values trace back to the OPERA property sets (Mansouri et al. 2018).

Classify: Criterion met when melting point is strictly less than 70 °C; Criterion not met when melting point is not.

molecule	qualitative.label
C=CCCCCCCCCC(=O)OCC	Criterion met
[N-]=[N+]=CC(=O)OC[C@H](N)C(=O)O	Criterion not met
CCCCCCCCCCCCCCCCCCCCCCCCCCCCCCCCCCCCCCCC	Criterion not met
Cc1nc2ccc([N+](=O)[O-])cc2[nH]1	Criterion not met
CCN(CC)CCC1(c2ccccc2)C(=O)Oc2ccccc21 (stereo not given)	Criterion met
Cc1cccc2cc3c(ccc4ccccc43)cc12	Criterion not met
FC(F)(F)C(F)(F)C(F)(F)C(F)(F)C(F)(F)C(F)(F)C(F)(F)C(F)(F)F	Criterion met
Nc1ccc(N=Nc2ccccc2)c(N)n1	Criterion not met
CC(=O)c1ccc(Br)s1	Criterion not met
C=COCCCCCCCCCCCCCCCC	Criterion met
ClCCOCOCCCl	Criterion met
CCSCC(=O)O	Criterion met
ICCCI	Criterion met
Nc1cc([N+](=O)[O-])cc([N+](=O)[O-])c1	Criterion not met
CCCCCCCCCCCCCCCCCCCCc1ccccc1	Criterion met
CCOC(=O)CCN(Cc1ccccc1)SN(C)C(=O)O/N=C(/C)SC	Criterion met
CC1=C(C)C(=O)OC1=O	Criterion not met
CC(C)c1cccc(C(C)C)c1	Criterion met
CN(C)c1ccc(-c2ccc(N(C)C)cc2)cc1	Criterion not met
O=S(=O)(Oc1ccc(Cl)cc1Cl)c1ccccc1	Criterion met
CCCCCCCCl	Criterion met
O=C(Nc1ccccc1Cl)c1ccccc1	Criterion not met
C#CC(C)(CC)OC(=O)c1ccccc1C(=O)O (stereo not given)	Criterion not met
C=CCOC1=NS(=O)(=O)c2ccccc21	Criterion not met
FC(Cl)(Cl)CCl	Criterion met
Nc1ccc(C(=O)O)cn1	Criterion not met
N=C(N)NOCC[C@H](N)C(=O)O	Criterion not met
Cc1ccc(Cl)cc1Cl	Criterion met

###

This section presents compounds with their documented boiling point values.

compound	boiling point [°C]
CCC(C)CC(C)N (stereo not given)	132
Cc1ccc(Cl)c(Cl)c1	209
C=CCOC(C)=O	104
CCOC(=O)c1ccc([N+](=O)[O-])cc1	186
CC(O)CN(C)C (stereo not given)	124
N#CCCCBr	206
CCOC(=O)C(C)O (stereo not given)	154
CCCCCC=CC(C)C	161
CCOC(=O)c1ccccc1C(=O)OCC	295
C=C1N(C)c2ccccc2C1(C)C	248
CC(=O)c1c(C)cc(C)cc1C	241
CC=C(C)Br	99.8
CN(N)c1ccccc1	228
CCCC(C)=C(C)C	122
C=CC(C)(CCC=C(C)C)OC(C)=O (stereo not given)	220
CC(C(C)(C)C)C(C)(C)C	159
CCCBr	71.1
Cc1ccc(Cl)c(N)c1	229
CCC(=O)OC(C)CC (stereo not given)	133
CC(=O)c1cccc(N)c1	290
COc1ccc(O)cc1	243
C1CC12CC2	39
COC(=O)c1ccccc1[N+](=O)[O-]	275
N#Cc1ccc2ccccc2c1	306
COB1OB(OC)OB(OC)O1	130
CC(C)(c1ccccc1)c1ccc(O)cc1	335
COc1ccc(C(C)(C)C)cc1	238
CC(C)(C)Oc1ccccc1	186
CCO[SiH](OCC)OCC	134
FC(F)(F)C(F)(F)C(F)(F)C(F)(F)C(F)(F)C(F)(F)C(F)(F)Br	118
Cc1ccc(C)c([N+](=O)[O-])c1	240
CCSC(C)=O	116
O=C(Cl)c1c(F)c(F)c(F)c(F)c1F	158
N[C@H](Cc1ccccc1)c1ccccc1	311
C#CC1(O)CCCC1	158

###

measurement.label: boiling point

compound	measurement.label	reported.measurement
CCCCC(CC)C(C)C (stereo not drawn)	boiling point	163 °C
CN(c1ccccc1)c1ccccc1	boiling point	294 °C
CCCC(CC)C(C)CC (stereo not drawn)	boiling point	165 °C
O=C(CCl)Oc1ccccc1	boiling point	232 °C
c1ccc(COc2ccccc2)cc1	boiling point	286 °C
N#Cc1cccc(Br)c1	boiling point	225 °C
CCOc1cccc2ccccc12	boiling point	280 °C
CCCCOCC(C)O (stereo not drawn)	boiling point	172 °C
CCCCCCC(C)N (stereo not drawn)	boiling point	165 °C
COc1ccccc1N	boiling point	224 °C
NCCCN1CCOCC1	boiling point	220 °C
C[Si](C)(Cl)CBr	boiling point	131 °C
CCCCCCCCCCCCCCCC	boiling point	287 °C
C=CCC(CC=C)(C(=O)OCC)C(=O)OCC	boiling point	244 °C
CC(C)(C)C(=O)O	boiling point	164 °C
CCCCCCCCCCCCCC1CCCCC1	boiling point	346 °C
CCCCC(=O)CC	boiling point	147 °C
CCC(C)(C)CO	boiling point	136 °C

###

settings: fish
This section presents compounds with their documented log10 biotransformation half-life (days) values.
measurement.label: log10 biotransformation half-life (days)

smiles.str	measurement.label	reported.measurement
CC(C)(C)c1ccc(O)cc1	log10 biotransformation half-life (days)	-0.87
Nc1ccc(-c2ccc(N)c(Cl)c2)cc1Cl	log10 biotransformation half-life (days)	-0.13
Nc1ccccc1	log10 biotransformation half-life (days)	-0.78
CC(=O)CC(=O)Nc1ccc(-c2ccc(NC(=O)CC(C)=O)c(C)c2)cc1C	log10 biotransformation half-life (days)	-1.5
C1CCC(C2CCCCC2)CC1	log10 biotransformation half-life (days)	0.38
Clc1cc(-c2cc(Cl)c(Cl)c(Cl)c2Cl)c(Cl)c(Cl)c1Cl	log10 biotransformation half-life (days)	3
Clc1ccc(Cl)cc1	log10 biotransformation half-life (days)	1.1

###

conditions: […]

smiles.str	log10 OH rate constant (cm³/molecule/s)
C=C/C(C)=C\CC=C(C)C	-9.6

###

I would appreciate it if you labelled entries Y when log10 vapour pressure (mmHg) is -1 or higher, otherwise N.

smiles.str	qualitative.label
Ic1ccc2c(c1)Oc1ccccc1O2	N
Brc1cccc2c1Oc1ccccc1O2	N
Brc1cccc(Br)c1	Y
CCS	Y
Cc1cc(C)c(C)c(C)c1C	N
CC(C)c1ccc2ccccc2c1	N
C=C(C)C	Y
FC(F)(Cl)C(F)(Cl)Cl	Y
C=Cc1ccccc1	Y
CCCCCCCCI	Y
N#CCCCCC#N	N
Cc1nc(N(C)C)nc(OC(=O)N(C)C)c1C	N
CC(C)SC(C)C	Y
Oc1c(Cl)cccc1Cl	N
c1ccc2c(c1)Oc1ccccc1O2	N
CCCCCCCC(C)=O	Y
c1ccc2c(c1)[nH]c1ccccc12	N
C=CCN=C=S	Y

###

This section presents molecules with their documented melting point values.

molecule	unit.spec	melting point
C=CC(=O)NC(C)(C)CC(C)=O	°C	57.5
Oc1ccc(Br)cc1Cl	°C	50.5
CCC1(N2CCCCC2)C(=O)NC(=O)NC1=O	°C	215
Nc1ccc([N+](=O)[O-])cc1Cl	°C	108
C[Si](Cl)(Cl)Cl	°C	-90
Cc1ccc(S(N)(=O)=O)cc1	°C	138
CC(C)CC(N)=O	°C	137
CCCCCCCCCCCCCCCCCCC(C)c1ccccc1 (stereo not drawn)	°C	29

###

Classify: Met when melting point is strictly less than 60 °C; Not met when melting point is not.

molecule	qualitative.label
Cc1cccc(O)c1C	Not met
O=[N+]([O-])c1cccc(O)c1	Not met
CCCCCC#CC(=O)O	Met
CCc1nc(N)nc(N)c1-c1ccc(Cl)cc1	Not met
CC(=O)OC1CCC2(C)C(CCC3(C)C2C(=O)C=C2C4CC(C)(C(=O)O)CCC4(C)CCC23C)C1(C)C (stereo not given)	Not met
CCOP(=S)(OCC)Oc1ccc2c(C)c(Cl)c(=O)oc2c1	Not met
CC1=NNC(=O)C1	Not met
Cc1cccc2ccc3ccccc3c12	Met
CCOC(=O)NCCOc1ccc(Oc2ccccc2)cc1	Met
CCC(=O)c1ccc(Cl)cc1	Met
CCOC(=O)c1ccc(F)cc1	Met
CC(=O)NO	Not met
C1CCSSC1	Met
CCOC(=O)c1ccc([N+](=O)[O-])cc1	Met
CN(C)C(=O)c1ccccc1	Met
ClCC1CO1 (stereo not given)	Met
CCCCCCCCC(C)=O	Met
Cc1noc(NS(=O)(=O)c2ccc(N)cc2)c1C	Not met
Nc1ncnc2c1ncn2[C@@H]1O[C@H](CO)C[C@H]1O	Not met
Oc1ccc2c(c1)[C@@]13CCCC[C@H]1[C@@H](C2)NCC3	Not met
O=[N+]([O-])c1ccc(-c2ccccc2[N+](=O)[O-])cc1	Not met
Cc1nnc(N)s1	Not met
NS(=O)(=O)c1cccc([N+](=O)[O-])c1	Not met
c1ccc2c(c1)OCCOCCOCCOc1ccccc1OCCOCCOCCO2	Not met
CCCC(=O)c1ccccc1	Met
Cc1c[nH]cn1	Met
C=CCC1(CC(=C)Br)C(=O)NC(=O)NC1=O	Not met
N#Cc1ccc2c(c1)N(CCCN1CCC(O)CC1)c1ccccc1S2	Not met
